- ASSAYED_SYSTEM: Botulinum neurotoxin type A (Clostridium botulinum) (UniProt P0DPI0)
- Sequence (P0DPI0 whole entry, looked up): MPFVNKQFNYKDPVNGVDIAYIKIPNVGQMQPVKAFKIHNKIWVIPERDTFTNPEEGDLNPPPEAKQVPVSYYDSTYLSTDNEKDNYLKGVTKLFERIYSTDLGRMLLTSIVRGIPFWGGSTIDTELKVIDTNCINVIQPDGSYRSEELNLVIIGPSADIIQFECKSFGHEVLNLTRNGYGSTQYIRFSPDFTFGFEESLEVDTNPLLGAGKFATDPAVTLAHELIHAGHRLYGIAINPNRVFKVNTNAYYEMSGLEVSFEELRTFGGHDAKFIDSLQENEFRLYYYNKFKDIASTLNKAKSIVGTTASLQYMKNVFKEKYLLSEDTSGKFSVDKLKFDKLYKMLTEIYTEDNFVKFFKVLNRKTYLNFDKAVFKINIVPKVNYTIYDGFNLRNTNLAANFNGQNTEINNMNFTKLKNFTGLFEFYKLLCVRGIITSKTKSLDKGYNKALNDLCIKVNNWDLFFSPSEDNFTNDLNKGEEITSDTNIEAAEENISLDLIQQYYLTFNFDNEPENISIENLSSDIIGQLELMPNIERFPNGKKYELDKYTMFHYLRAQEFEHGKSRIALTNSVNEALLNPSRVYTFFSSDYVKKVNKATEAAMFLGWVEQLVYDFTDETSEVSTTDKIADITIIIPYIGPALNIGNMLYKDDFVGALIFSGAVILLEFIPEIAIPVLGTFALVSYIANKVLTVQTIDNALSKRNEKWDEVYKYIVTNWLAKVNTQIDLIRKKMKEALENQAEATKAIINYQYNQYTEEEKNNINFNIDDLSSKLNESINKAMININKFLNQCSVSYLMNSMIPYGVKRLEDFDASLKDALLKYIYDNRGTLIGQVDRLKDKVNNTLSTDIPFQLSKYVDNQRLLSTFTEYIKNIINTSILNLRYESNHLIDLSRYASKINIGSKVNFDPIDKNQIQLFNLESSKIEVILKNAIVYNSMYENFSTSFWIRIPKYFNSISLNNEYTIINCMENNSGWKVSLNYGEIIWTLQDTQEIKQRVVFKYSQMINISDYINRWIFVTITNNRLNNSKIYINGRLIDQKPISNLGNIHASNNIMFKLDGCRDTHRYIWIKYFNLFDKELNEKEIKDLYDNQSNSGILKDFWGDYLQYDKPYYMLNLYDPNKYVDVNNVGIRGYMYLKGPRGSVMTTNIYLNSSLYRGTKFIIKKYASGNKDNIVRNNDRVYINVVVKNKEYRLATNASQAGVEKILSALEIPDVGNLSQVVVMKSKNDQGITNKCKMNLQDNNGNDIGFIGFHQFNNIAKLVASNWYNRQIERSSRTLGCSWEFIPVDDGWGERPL
- MEASUREMENT_PROTOCOL: BoNT/A light chain protease inhibitors, biochemical, multiplex microsphere flow cytometry, validation set (AID 588460)
- TEST_CONTEXT: at 10 µM, active compounds read high
Listed here are compounds together with their documented inhibition.

COMPOUND	inhibition (%)
COc1ccc2[nH]c3c(c2c1)CCNC3C1CC=C(C)CC1 (stereo not drawn)	0.2
OCCN(CCO)c1ccc2ccccc2c1	-1.2
Cc1ccc(C(=O)N2CC3(C(C)C)CN(C(=O)c4ccc(C)cc4)CC(C(C)C)(C2)C3=O)cc1	-0.5
COc1ccc(-c2cc(=Nc3ccc(C)cc3)c3ccccc3o2)cc1	-0.6
CC(=O)C1=C(NC(=O)c2ccc(C(F)(F)F)cc2)C[C@@H]2[C@H]1C2(C)C	1.5
CC(=O)Oc1c2occc2cc2ccc(=O)oc12	-1
COC(=O)c1[nH]c2ccccc2c1NC(=O)CN1CCN(C/C=C/c2ccccc2)CC1	-1.4
CCn1c(O)c(C(=O)CC2NCCc3ccccc32)c(=O)n(CC)c1=S (stereo not drawn)	1.1
CCS(=O)(=O)CCn1c([N+](=O)[O-])cnc1C	0.7
O=c1n(CCCN2CCN(c3cccc(Cl)c3)CC2)nc2ccccn12	-0.2
O=c1[nH]cnc2c1ncn2[C@@H]1O[C@H](CO)[C@@H](O)[C@H]1O	0.1
C[N+]1(C)CCOC(O)(c2ccc(-c3ccc(C4(O)C[N+](C)(C)CCO4)cc3)cc2)C1 (stereo not drawn)	0.1
Cc1ccc(S(=O)(=O)Oc2ccccc2/C=N/N=C(N)N)cc1	1.3

====

- ASSAYED_SYSTEM: Lethal factor (Bacillus anthracis)
- MEASUREMENT_PROTOCOL: Lethal factor protease inhibitors, Bacillus anthracis, multiplex microsphere cleavage assay, validation set (AID 588461)
- TEST_CONTEXT: flow cytometry, at 10 µM, active compounds read high
The source made the active and inactive calls. How the calls were made is not given here.

MOLECULE	inhibition
Cc1cccc(C)c1NS(=O)(=O)c1ccc(NC(=O)c2ccc(Cl)c([N+](=O)[O-])c2)cc1	0.9% (inactive)
Cc1ccc2c(c1)c(C)cc(=O)n2CCC(=O)O	1.1% (inactive)
COc1ccc2[nH]c3c(=O)n(/N=C/[C@H]4C(C)C=C(C)CC4C)c(=O)[nH]c3c2c1 (some centres not stated)	7.1% (inactive)
CCOC(=O)c1oc2cc(OCC(N)=O)ccc2c(=O)c1-c1ccc(OC)c(OC)c1	1.9% (inactive)
COc1cc2c(cc1OC)C(c1ccc(-c3cc(Cl)ccc3Cl)o1)=NCC2	-4.2% (inactive)
Nc1ccc([As](=O)(O)O)cc1	6.8% (inactive)
Cn1c(=O)c2c(ncn2Cc2ccccc2)n(C)c1=O	7.6% (inactive)
COc1ccc(C2(CCN=Cc3ccc(N(C)C)cc3)CCOC(C)(C)C2)cc1 (configuration not stated)	-2% (inactive)
CCOC(=O)c1ccc(N2C(=O)C(CC(=O)NC)N(CCc3ccc(OC)c(OC)c3)C2=S)cc1 (configuration not stated)	-10.1% (inactive)
CCOC(=O)c1cc2c(cn1)[nH]c1ccccc12	-1.3% (inactive)
C#CCN1C(=O)C(O)(CC(=O)c2ccc(OC)c(OC)c2)c2ccccc21 (configuration not stated)	2% (inactive)
Fc1cccc(Cc2noc(CN3CCN(c4cnccn4)CC3)n2)c1	0.5% (inactive)
CC(=O)N(C(C)=O)c1nc2nc(C)cc(C)n2n1	1.4% (inactive)
COC(=O)c1cc(OC)c(OC)cc1NC(=O)CN1C(=O)c2ccccc2C1=O	-5.5% (inactive)
Cn1nc(-c2ccccn2)nc2c(=O)n(C)c(=O)nc1-2	-13% (inactive)
COc1ccc(NC(=S)N2CCN(CCN3C(=O)c4cccc5cccc(c45)C3=O)CC2)cc1	-3.3% (inactive)
COc1cc2c(cc1OC)C(Cc1ccc(O)cc1)N(C)CC2 (configuration not stated)	-0.9% (inactive)

====

- ASSAYED_SYSTEM: Botulinum neurotoxin type A (Clostridium botulinum) (UniProt P0DPI0)
- MEASUREMENT_PROTOCOL: BoNT/A light chain protease inhibitors, biochemical, multiplex microsphere flow cytometry, validation set (AID 588460)
- TEST_CONTEXT: at 10 µM, active compounds read high
ATTRIBUTE_MEASURED: inhibition (%)

COMPOUND	ASSAYED_SYSTEM	MEASURED
NNC(=O)c1ccc(Cl)cc1	Botulinum neurotoxin type A (Clostridium botulinum) (UniProt P0DPI0)	0.4
CC(C)c1ccc2[nH]c3c(c2c1)CCCC3=O	Botulinum neurotoxin type A (Clostridium botulinum) (UniProt P0DPI0)	-0.8
COc1ccc(-c2nc(C)c(C(C)=O)n2O)cc1OC	Botulinum neurotoxin type A (Clostridium botulinum) (UniProt P0DPI0)	-1.6
Cn1c(=O)c2[nH]cnc2n(C)c1=O	Botulinum neurotoxin type A (Clostridium botulinum) (UniProt P0DPI0)	-2
O=C1C2CC=C(Cl)CC2C(=O)N1CCc1c[nH]c2ccccc12 (configuration not stated)	Botulinum neurotoxin type A (Clostridium botulinum) (UniProt P0DPI0)	0.1
COc1cccc(CN2CCN(C(=O)c3ccc(-c4ccccc4)cc3)CC2)c1	Botulinum neurotoxin type A (Clostridium botulinum) (UniProt P0DPI0)	-0.4
CC1CNCCN1S(=O)(=O)c1cccc2cnccc12 (configuration not stated)	Botulinum neurotoxin type A (Clostridium botulinum) (UniProt P0DPI0)	-0.1
COc1ccccc1/C=C/CN1CCN(Cc2ccc(F)cc2)C(CCO)C1 (configuration not stated)	Botulinum neurotoxin type A (Clostridium botulinum) (UniProt P0DPI0)	-0.2
O=C1[C@@H]2[C@H](Cc3ccc(O)cc3)N[C@]3(C(=O)Nc4ccccc43)[C@@H]2C(=O)N1c1ccc(F)cc1	Botulinum neurotoxin type A (Clostridium botulinum) (UniProt P0DPI0)	1.7
CCc1cccc2c1NC1(CCCC1)CC2C (configuration not stated)	Botulinum neurotoxin type A (Clostridium botulinum) (UniProt P0DPI0)	-1.3
NCC1(c2ccc3c(c2)OCCO3)CCCC1	Botulinum neurotoxin type A (Clostridium botulinum) (UniProt P0DPI0)	-0.6
CC(C)(S)[C@@H](N)C(=O)O	Botulinum neurotoxin type A (Clostridium botulinum) (UniProt P0DPI0)	-0.8
COc1ccc2c(c1O)Cc1ccccc1C2=O	Botulinum neurotoxin type A (Clostridium botulinum) (UniProt P0DPI0)	-0.7
Cn1nc(-c2ccc(Cl)cc2)nc2c(=O)n(C)c(=O)nc1-2	Botulinum neurotoxin type A (Clostridium botulinum) (UniProt P0DPI0)	2
COc1cc(-c2cccs2)cc(=O)c2c(C)oc(C)c12	Botulinum neurotoxin type A (Clostridium botulinum) (UniProt P0DPI0)	2.1
CCCNC(C)C(=O)Nc1ccccc1C (configuration not stated)	Botulinum neurotoxin type A (Clostridium botulinum) (UniProt P0DPI0)	0.2
COC(=O)c1ccc(OCCCCN2CC(C)OC(C)C2)cc1 (configuration not stated)	Botulinum neurotoxin type A (Clostridium botulinum) (UniProt P0DPI0)	0.2
COc1ccc(NC(=O)N2CCCCC2c2cccnc2)cc1 (configuration not stated)	Botulinum neurotoxin type A (Clostridium botulinum) (UniProt P0DPI0)	0.7
CN1C[C@H](CNC(=O)OCc2ccccc2)C[C@@H]2c3cccc4c3c(cn4C)C[C@H]21	Botulinum neurotoxin type A (Clostridium botulinum) (UniProt P0DPI0)	1.5
Cc1cc(Cl)ccc1OC(C)C(=O)O (configuration not stated)	Botulinum neurotoxin type A (Clostridium botulinum) (UniProt P0DPI0)	0.5
CCOC(=O)C1(CCCc2ccccc2)CCN(C2CCN(C(C)=O)CC2)CC1	Botulinum neurotoxin type A (Clostridium botulinum) (UniProt P0DPI0)	1.4
O=C1CSC2N1CCNC21CCCCC1 (configuration not stated)	Botulinum neurotoxin type A (Clostridium botulinum) (UniProt P0DPI0)	1

====

- ASSAYED_SYSTEM: ATP-binding cassette sub-family B member 6 (Homo sapiens) (UniProt Q9NP58)
- Sequence (Q9NP58 whole entry, looked up): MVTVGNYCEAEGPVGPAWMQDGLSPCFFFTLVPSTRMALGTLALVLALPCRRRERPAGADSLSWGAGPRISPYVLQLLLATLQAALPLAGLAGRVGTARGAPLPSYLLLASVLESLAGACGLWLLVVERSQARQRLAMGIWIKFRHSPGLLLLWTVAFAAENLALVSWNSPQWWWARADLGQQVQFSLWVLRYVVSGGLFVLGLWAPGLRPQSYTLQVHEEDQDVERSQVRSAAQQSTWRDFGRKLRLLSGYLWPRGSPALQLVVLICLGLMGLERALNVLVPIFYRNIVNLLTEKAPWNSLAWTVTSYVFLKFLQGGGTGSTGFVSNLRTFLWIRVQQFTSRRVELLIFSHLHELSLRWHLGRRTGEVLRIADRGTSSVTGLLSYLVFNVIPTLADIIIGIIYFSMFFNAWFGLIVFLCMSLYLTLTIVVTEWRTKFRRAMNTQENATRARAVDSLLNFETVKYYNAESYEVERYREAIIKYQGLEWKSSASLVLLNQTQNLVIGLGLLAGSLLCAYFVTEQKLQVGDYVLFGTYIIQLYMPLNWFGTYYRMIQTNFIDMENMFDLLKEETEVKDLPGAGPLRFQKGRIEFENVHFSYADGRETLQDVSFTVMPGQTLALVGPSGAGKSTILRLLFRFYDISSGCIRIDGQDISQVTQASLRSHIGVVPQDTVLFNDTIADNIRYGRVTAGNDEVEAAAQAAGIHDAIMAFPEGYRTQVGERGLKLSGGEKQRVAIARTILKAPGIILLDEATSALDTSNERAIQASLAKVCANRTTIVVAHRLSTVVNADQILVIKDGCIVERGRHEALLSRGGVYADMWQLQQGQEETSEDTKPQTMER
- MEASUREMENT_PROTOCOL: ABCB6 transporter inhibitors, pilot screen, K562-ABCB6 cells, flow cytometry, validation set (AID 588550);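 note: 0% = DMSO wells and 100% = benzethonium chloride 70 µM positive control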
- TEST_CONTEXT: K562-ABCB6 porphyrin accumulation, 1 h, at 10 µM, active compounds read high

MOLECULE	inhibition, %
NCC(O)c1ccc(O)cc1 (stereo not drawn)	8
CC(C)(C)C(O)C(Oc1ccc(Cl)cc1)n1cncn1 (stereo not drawn)	4
COc1ccc(OC)c([C@@H](O)[C@H](C)NC(C)(C)C)c1	18
NC(=O)CN1CCCC1=O	4
CC1CCC[C@H](O)CCCCCc2cc(O)cc(O)c2C(=O)O1 (stereo partly drawn)	-7
CC12CCC3C(CC=C4CC5(CCC43C)OCCO5)C1CCC2=O (stereo not drawn)	15
C[C@H]1CCCC(=O)CCC/C=C/c2cc(O)cc(O)c2C(=O)O1	3
O=C1C(=O)c2ccccc2-c2ccccc21	-64
CN1C(=O)CN=C(c2ccc(Cl)cc2)c2cc(Cl)ccc21	7
CCN(CC)CCOC(=O)C(O)(c1ccccc1)c1ccccc1	-101
C[N+](C)(C)Cc1ccccc1	1
Clc1ccc(COC(Cn2ccnc2)c2ccc(Cl)cc2Cl)cc1 (stereo not drawn)	-31
COc1ccc(-c2nc3ccccc3c(=O)o2)cc1	-2
